# polymerase ribozyme fitness (log ratio) listing for each entry below
B1: TPR 5TU (parent)
chain: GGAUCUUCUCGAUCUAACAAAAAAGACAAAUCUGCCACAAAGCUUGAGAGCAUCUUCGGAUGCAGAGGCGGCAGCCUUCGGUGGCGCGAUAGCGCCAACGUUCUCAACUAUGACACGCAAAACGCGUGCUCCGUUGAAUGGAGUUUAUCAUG

variants of: B1; assay: polymerase ribozyme fitness, log enrichment relative to wild type (log ratio); higher = more active; in vitro selection for triplet polymerase activity
Variants at the floor of the assay were thinned out.
measurement.name: polymerase ribozyme fitness (log ratio)

mutation.list: A3U A26U A29U A49C C87U C114U G141A
result: ≤ -4.2

mutation.list: C18G C63G G68U G71A U78G C85G G100A G141U
result: ≤ -4.2

mutation.list: C27U G141C
result: -2.54

mutation.list: A29C A37C G74A A97G U130A
result: ≤ -4.2

mutation.list: C76U C116G
result: 0.541

mutation.list: A22U A41C G70C U82G
result: ≤ -4.2

mutation.list: G48U A73G
result: -1.15

mutation.list: C8A A40U G42A G68A C85U U144G
result: ≤ -4.2

mutation.list: A41G C76U C93G A106G A122G C129A G141U
result: ≤ -4.2

mutation.list: A19G G68U C79G G84A G86A U135C G140U
result: ≤ -4.2

mutation.list: C95U G124C
result: -0.723
